Provenance of the data: the MegaScale stability set (Tsuboyama et al. 2023)

B1: EEHEE_rd4_0469 (parent)
chain: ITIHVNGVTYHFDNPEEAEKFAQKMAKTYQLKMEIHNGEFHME

Variants of: B1
Assay: folding stability dG (cDNA display proteolysis); higher = more stable
Conditions: PBS, room temperature
Hi, to clarify the labels: 1.0 covers folding stability dG from 1 kcal/mol upward, 0.0 covers anything below 1 kcal/mol.

Problem: Determine whether measured folding stability dG meets or exceeds 1 kcal/mol for L31Y
Result: 1.0

Problem: Determine whether measured folding stability dG meets or exceeds 1 kcal/mol for T28G
Result: 0.0

Problem: Determine whether measured folding stability dG meets or exceeds 1 kcal/mol for K24P
Result: 0.0
